Below, each entry is listed with its recorded ED50.
Tested on: methyl-phenidate-induced gnawing behaviour of mice
Assay: antagonism of methylphenidate-induced stereotyped gnawing in mice
Conditions: Mus musculus, po, read-out: ED50 p.o.
Source text: Following the method of Pedersen, V. and Christensen, A.V.: "Antagonism of methylphenidate-induced stereotyped gnawing in mice", Acta Pharmacol. et Toxicol. 31: 488-496, 1972, antagonism of dopamine-dependent, methyl-phenidate-induced gnawing behaviour of mice, was used to assess the effects of the present D-1 antagonists. Further, the ratio of ED50 values obtained using i.v. administration and oral administration, respectively, was taken as an index of the bioavailability of the test drugs.
Expressed in mg/kg, but write only the number.

Consider the worked cases shown below.
molecule	ED50, mg/kg
CN1CCc2cc([N+](=O)[O-])c(O)cc2[C@@H](c2ccccc2)C1	11.9
CN1CCc2cc([N+](=O)[O-])c(O)cc2C(c2cccc3c2OCC3)C1 (single isomer, unassigned; (+))	1.9
CN1CCc2cc(Cl)c(O)cc2C(c2cccc3c2OCC3)C1 (stereo not shown) [reference compound]	4.5

Switching to the query record.
Consider the molecule shown here: CN1CCc2cc(Cl)c(O)cc2[C@@H](c2ccccc2)C1 What is its recorded ED50?
6.5
